- subject_of_test: T1, human IL-18 binding protein (human, UniProt O95998 31-194)
- T1 sequence (looked up): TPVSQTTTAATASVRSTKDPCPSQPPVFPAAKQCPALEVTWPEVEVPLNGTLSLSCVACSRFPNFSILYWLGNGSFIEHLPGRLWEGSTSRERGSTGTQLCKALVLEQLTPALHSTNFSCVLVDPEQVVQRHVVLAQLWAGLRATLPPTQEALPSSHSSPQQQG
- protocol_text: cell-based or functional assay
assay_metric: Ratio (-BP/+BP), DF-1,000,000

Previously resolved entries follow.
binder: yeast display IL-18 variant K53T, S55A (ligand) YFGKLESKLSVIRNLNDQVLFIDQGNRPLFEDMTDSDMRDNAPRTIFIISMYTDAQPRGMAVTISVKSEKISTLSSENKIISFKEMNPPDNIKDTKSDIIFFQRSVPGHDNKMQFESSSYEGYFLASEKERDLFKLILKKEDELGDRSIMFTVQNED
Ratio (-BP/+BP), DF-1,000,000: 0.89
//
binder: yeast display IL-18 variant K53S, S55G (ligand) YFGKLESKLSVIRNLNDQVLFIDQGNRPLFEDMTDSDMRDNAPRTIFIISMYSDGQPRGMAVTISVKSEKISTLSSENKIISFKEMNPPDNIKDTKSDIIFFQRSVPGHDNKMQFESSSYEGYFLASEKERDLFKLILKKEDELGDRSIMFTVQNED
Ratio (-BP/+BP), DF-1,000,000: 1.1
//
binder: yeast display IL-18 variant K53G, S55V (ligand) YFGKLESKLSVIRNLNDQVLFIDQGNRPLFEDMTDSDMRDNAPRTIFIISMYGDVQPRGMAVTISVKSEKISTLSSENKIISFKEMNPPDNIKDTKSDIIFFQRSVPGHDNKMQFESSSYEGYFLASEKERDLFKLILKKEDELGDRSIMFTVQNED
Ratio (-BP/+BP), DF-1,000,000: 1.03

Input: Suppose we examine the binder yeast display IL-18 variant K53S, S55F, R104K, H109Y (ligand) YFGKLESKLSVIRNLNDQVLFIDQGNRPLFEDMTDSDMRDNAPRTIFIISMYSDFQPRGMAVTISVKSEKISTLSSENKIISFKEMNPPDNIKDTKSDIIFFQKSVPGYDNKMQFESSSYEGYFLASEKERDLFKLILKKEDELGDRSIMFTVQNED ; what Ratio (-BP/+BP), DF-1,000,000 value has been reported?
Output: 0.95

Input: Next entry: yeast display IL-18 variant K53T, S55P (ligand) YFGKLESKLSVIRNLNDQVLFIDQGNRPLFEDMTDSDMRDNAPRTIFIISMYTDPQPRGMAVTISVKSEKISTLSSENKIISFKEMNPPDNIKDTKSDIIFFQRSVPGHDNKMQFESSSYEGYFLASEKERDLFKLILKKEDELGDRSIMFTVQNED
Output: 0.79

Input: Next entry: yeast display IL-18 variant K53G, S55I (ligand) YFGKLESKLSVIRNLNDQVLFIDQGNRPLFEDMTDSDMRDNAPRTIFIISMYGDIQPRGMAVTISVKSEKISTLSSENKIISFKEMNPPDNIKDTKSDIIFFQRSVPGHDNKMQFESSSYEGYFLASEKERDLFKLILKKEDELGDRSIMFTVQNED
Output: 0.7
